Measured IC50 of individual entries
- Assay target: human cholecystokinin-2 receptor (CCK-2R) (Homo sapiens, UniProt P32239)
- Construct: host or cells: 1321-N1 cells (plasma membranes prepared by Evotec AG Hamburg)
- Sequence (P32239 whole entry): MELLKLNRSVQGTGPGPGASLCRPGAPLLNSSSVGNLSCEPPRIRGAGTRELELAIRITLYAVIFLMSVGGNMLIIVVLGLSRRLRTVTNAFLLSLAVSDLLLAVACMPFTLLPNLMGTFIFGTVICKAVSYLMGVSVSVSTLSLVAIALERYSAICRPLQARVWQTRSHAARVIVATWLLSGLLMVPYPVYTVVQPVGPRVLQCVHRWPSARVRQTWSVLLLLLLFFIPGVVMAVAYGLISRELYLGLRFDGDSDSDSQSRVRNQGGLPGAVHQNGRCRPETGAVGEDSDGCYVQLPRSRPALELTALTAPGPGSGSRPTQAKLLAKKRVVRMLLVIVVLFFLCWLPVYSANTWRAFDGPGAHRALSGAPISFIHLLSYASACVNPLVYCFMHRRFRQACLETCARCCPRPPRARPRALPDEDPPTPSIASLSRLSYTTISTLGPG
- Assay explanation: In vitro receptor binding to CCK-2R, SPA displacement of [125I]-CCK-8s from plasma membranes
- Measurement conditions: displacement of [125I]-CCK-8s, plasma membranes of 1321-N1 cells expressing CCK-2R; highest dose tested 1×10^7 pM; read-out: IC50 (CCK-2R)
- Procedure: The in vitro binding affinity is a measure of the strength of attraction between a receptor and its ligand. Displacement of radio ligand was measured as reduction in light emission from SPA beads. […] A minimum of three biological replicates was measured for each test compound on separate assay plates.
Non-standard residues stand in square brackets, D forms with d. Residues, ends and D or L forms follow the SMILES beside them. sY = N[C@@H](Cc1ccc(OS(=O)(=O)O)cc1)C(=O)O; NMeF = CN[C@@H](Cc1ccccc1)C(=O)O; dNMeD = CN[C@H](CC(=O)O)C(=O)O; Nle = CCCC[C@H](N)C(=O)O

Some molecules with recorded IC50:
{"Molecule": "CCCC[C@H](NC(=O)[C@H](Cc1c[nH]c2ccccc12)NC(=O)CNC(=O)[C@H](CC(C)C)NC(=O)[C@H](Cc1ccc(OS(=O)(=O)O)cc1)NC(=O)[C@H](CC(=O)O)NC(=O)COCCOCCNC(=O)COCCOCCNC(=O)COCCOCCNC(=O)COCCOCCNC(=O)CC[C@H](NC(=O)CCCCCCCCCCCCCCCCC(=O)O)C(=O)O)C(=O)N(C)[C@H](CC(=O)O)C(=O)N(C)[C@@H](Cc1ccccc1)C(N)=O", "Result": "0.48 µM"}
{"Molecule": "CCCC[C@H](NC(=O)[C@H](Cc1c[nH]c2ccccc12)NC(=O)CNC(=O)[C@H](CC(C)C)NC(=O)[C@H](Cc1ccc(OS(=O)(=O)O)cc1)NC(=O)[C@@H](N)CC(=O)O)C(=O)N(C)[C@H](CC(=O)O)C(=O)N[C@@H](Cc1ccccc1)C(N)=O", "Result": "> 10 µM"}

// next item, IC50 requested
Record CCCC[C@H](NC(=O)[C@@H](N)Cc1ccc(OS(=O)(=O)O)cc1)C(=O)NCC(=O)N[C@@H](Cc1c[nH]c2ccccc12)C(=O)N[C@@H](CCCC)C(=O)N(C)[C@H](CC(=O)O)C(=O)N(C)[C@@H](Cc1ccccc1)C(N)=O [Example 72, sTyr-Nle-Gly-Trp-Nle-DMeAsp-MePhe-amide] (H-[sY][Nle]GW[Nle][dNMeD][NMeF]-NH2; N-terminus assumed) has human cholecystokinin-2 receptor (CCK-2R) (Homo sapiens, UniProt P32239) IC50 equal to > 10 µM
